Cited source for all entries: patent US20180258158A1

system.under.test: T1, cynomolgus monkey serum albumin (cynoSA), full length (cynomolgus monkey, UniProt A2V9Z4 25-608)
T1 construct: mature; Immobilized on CM5 chip (SPR); the cynoSA experiment used a different Biacore chip; also called CySA
assay.details: SPR kinetics, immobilized albumin, 1:1 fit, 37 C
// values below are reported kon

These recorded examples may help you get a feel for the data.
binder | kon
ADX_7016_G01 (Y44S) (designed binder, Full His6-tagged entry; also called 6727_G02) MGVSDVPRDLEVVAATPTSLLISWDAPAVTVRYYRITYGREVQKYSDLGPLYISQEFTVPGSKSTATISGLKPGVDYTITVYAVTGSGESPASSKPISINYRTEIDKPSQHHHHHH | 62500 M⁻¹ s⁻¹
ADX_7016_A01 (parent PKE2 Adnectin) (designed binder, N-terminal Met may be cleaved; also called 2629_E06; ADX_2629_E06) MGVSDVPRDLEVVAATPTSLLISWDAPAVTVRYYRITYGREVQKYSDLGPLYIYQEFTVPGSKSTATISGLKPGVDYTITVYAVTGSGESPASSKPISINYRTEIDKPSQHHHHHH | 89400 M⁻¹ s⁻¹
ADX_7016_C03 (Y44Q) (designed binder, Full His6-tagged entry; also called 6727_B03) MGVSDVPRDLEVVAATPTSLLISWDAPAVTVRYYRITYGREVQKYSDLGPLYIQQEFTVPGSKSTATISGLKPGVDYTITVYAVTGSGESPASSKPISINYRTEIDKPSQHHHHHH | 41200 M⁻¹ s⁻¹

Dear colleague, please send me the reported kon for ADX_7016_E02 (L38T) (designed binder, Full His6-tagged entry; also called 6727_E08) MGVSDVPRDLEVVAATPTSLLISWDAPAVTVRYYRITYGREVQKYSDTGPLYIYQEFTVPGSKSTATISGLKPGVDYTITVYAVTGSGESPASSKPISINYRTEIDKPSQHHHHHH when you can.
119000 M⁻¹ s⁻¹
